System: LG0567-F671-PDC KRAS tumor spheroid viability
Assay: Anticancer human tumor LG0567-F671-PDC patient-derived lung adenocarcinoma cell line growth inhibition [KRAS2]; active = viability on the fitted dose curve at most 10% of control; inactive = the rest
Conditions: second compound 10 µM; first compound 1 µM; spheroids with HUVEC and MSC
Text: Multicellular complex tumor spheroid response to RAS pathway inhibitors in combination with a targeted agents in patient-derived cell lines with oncogenic KRAS variants from multiple cancer types A high-throughput screen of multi-cell type tumor spheroids was designed to identify active combinations of targeted small molecules and KRAS pathway inhibitors. […] Compounds. […] If the clinical Cmax for an agent had not been determined, the highest concentration tested was 10 microM. […]
In this exercise, the only acceptable responses are label 1 for active, label 0 for inactive

Use these answered entries as a reference point.
compound	answer label
CCNC(=O)CC1N=C(c2ccc(Cl)cc2)c2cc(OC)ccc2-n2c(C)nnc21 (stereo not given) + CC1OCC2(CCN(c3cnc(Sc4ccnc(N)c4Cl)c(N)n3)CC2)C1N	label 1
CC(C)NCC(C(=O)N1CCN(c2ncnc3c2C(C)CC3O)CC1)c1ccc(Cl)cc1 (stereo not given) + CNCc1ccccc1-c1csc(C(C)Nc2nc(C)nc3cc(OC)c(OC)cc23)c1	label 1
CC1OCC2(CCN(c3cnc(Sc4ccnc(N)c4Cl)c(N)n3)CC2)C1N (stereo not given) + C=CC(=O)N1CCN(c2nc(=O)n(-c3c(C)ccnc3C(C)C)c3nc(-c4c(O)cccc4F)c(F)cc23)C(C)C1	label 1
COc1cc2nccc(Oc3ccc(NC(=O)C4(C(=O)Nc5ccc(F)cc5)CC4)cc3)c2cc1OC + COc1cc2nc(C)nc(NC(C)c3cc(N)cc(C(F)(F)F)c3)c2cc1OC1CCOC1	label 0

Now consider the entry below.
Task: Field: outcome | Entry: CC1(C)CCC(CN2CCN(c3ccc(C(=O)NS(=O)(=O)c4ccc(NCC5CCOCC5)c([N+](=O)[O-])c4)c(Oc4cnc5[nH]ccc5c4)c3)CC2)=C(c2ccc(Cl)cc2)C1 + CNCc1ccccc1-c1csc(C(C)Nc2nc(C)nc3cc(OC)c(OC)cc23)c1
Output: label 1

###

test system: LG0567-F671-PDC KRAS tumor spheroid viability; assay: Anticancer human tumor LG0567-F671-PDC cell line growth inhibition [KRAS2]; settings: second compound 1 µM; first compound 0.1 µM; hits give low values; spheroids with HUVEC and MSC;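 note: drug exposure lasted seven days after spheroids formed for three days; 100% = DMSO vehicle control viability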
assay readout: viability, T/C

molecule	viability, T/C
CC1OCC2(CCN(c3cnc(Sc4ccnc(N)c4Cl)c(N)n3)CC2)C1N (stereo unspecified) + CNCc1ccccc1-c1csc(C(C)Nc2nc(C)nc3cc(OC)c(OC)cc23)c1	43.4%
CC(=O)OC12COC1CC(O)C1(C)C(=O)C(O)C3=C(C)C(OC(=O)C(O)C(NC(=O)OC(C)(C)C)c4ccccc4)CC(O)(C(OC(=O)c4ccccc4)C21)C3(C)C (stereo unspecified) + C=CC(=O)N1CCN(c2nc(OCC3CCCN3C)nc3c2CCN(c2cccc4cccc(C)c24)C3)CC1CC#N	15.9%
CC(C)n1nc(-c2ccc3oc(N)nc3c2)c2c(N)ncnc21 + C=CC(=O)N1CCN(c2nc(OCC3CCCN3C)nc3c2CCN(c2cccc4cccc(C)c24)C3)CC1CC#N	9.9%
COc1cc(Nc2ncc3c(n2)-c2ccc(Cl)cc2C(c2c(F)cccc2OC)=NC3)ccc1C(=O)O + C=CC(=O)N1CCN(c2nc(=O)n(-c3c(C)ccnc3C(C)C)c3nc(-c4c(O)cccc4F)c(F)cc23)C(C)C1	23.6%
CN(C)C/C=C/C(=O)Nc1cc2c(Nc3ccc(F)c(Cl)c3)ncnc2cc1O[C@H]1CCOC1 + CNCc1ccccc1-c1csc(C(C)Nc2nc(C)nc3cc(OC)c(OC)cc23)c1	37.4%
CC(C)NCC(C(=O)N1CCN(c2ncnc3c2C(C)CC3O)CC1)c1ccc(Cl)cc1 (stereo unspecified) + CNCc1ccccc1-c1csc(C(C)Nc2nc(C)nc3cc(OC)c(OC)cc23)c1	63.5%
CN(C)C/C=C/C(=O)Nc1cc2c(Nc3ccc(F)c(Cl)c3)ncnc2cc1O[C@H]1CCOC1 + C=CC(=O)N1CCN(c2nc(=O)n(-c3c(C)ccnc3C(C)C)c3nc(-c4c(O)cccc4F)c(F)cc23)C(C)C1	24.4%
COc1cc(Nc2ncc3c(n2)-c2ccc(Cl)cc2C(c2c(F)cccc2OC)=NC3)ccc1C(=O)O + COc1cc2nc(C)nc(NC(C)c3cc(N)cc(C(F)(F)F)c3)c2cc1OC1CCOC1	53.7%
Cn1nccc1Nc1nccc(-c2cc3c(s2)C(C)(C)N(CCN2CCOCC2)C3=O)n1 + CNCc1ccccc1-c1csc(C(C)Nc2nc(C)nc3cc(OC)c(OC)cc23)c1	66.1%
CC(C)NCC(C(=O)N1CCN(c2ncnc3c2C(C)CC3O)CC1)c1ccc(Cl)cc1 (stereo unspecified) + COc1cc2nc(C)nc(NC(C)c3cc(N)cc(C(F)(F)F)c3)c2cc1OC1CCOC1	58.5%

Would you kindly look at the next entry?
Task: Fill blank: measured viability, T/C of the molecule Cn1ncnc1[C@H]1c2n[nH]c(=O)c3cc(F)cc(c23)N[C@@H]1c1ccc(F)cc1 + CNCc1ccccc1-c1csc(C(C)Nc2nc(C)nc3cc(OC)c(OC)cc23)c1 is ____.
Output: 46.1%

###

tested on: LG0567-F671-PDC KRAS tumor spheroid viability; test: Anticancer human tumor LG0567-F671-PDC cell line growth inhibition [KRAS2]; settings: second compound 1 µM; first compound 1 µM; hits give low values; spheroids with HUVEC and MSC;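 note: drug exposure lasted seven days after spheroids formed for three days; 100% = DMSO vehicle control viability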
Note to self: viability, T/C under 20% means Condition met, ties and anything higher get Condition not met.

compound	answer label
COc1cc(Nc2ncc3c(n2)-c2ccc(Cl)cc2C(c2c(F)cccc2OC)=NC3)ccc1C(=O)O + CNCc1ccccc1-c1csc(C(C)Nc2nc(C)nc3cc(OC)c(OC)cc23)c1	Condition not met
CC(C)NCC(C(=O)N1CCN(c2ncnc3c2C(C)CC3O)CC1)c1ccc(Cl)cc1 (stereo unspecified) + C=CC(=O)N1CCN(c2nc(OCC3CCCN3C)nc3c2CCN(c2cccc4cccc(C)c24)C3)CC1CC#N	Condition met
CC1COCCN1c1cc(-c2ccnn2C)c2ccnc(-c3ccn[nH]3)c2n1 (stereo unspecified) + COc1cc2nc(C)nc(NC(C)c3cc(N)cc(C(F)(F)F)c3)c2cc1OC1CCOC1	Condition met
CCNC(=O)CC1N=C(c2ccc(Cl)cc2)c2cc(OC)ccc2-n2c(C)nnc21 (stereo unspecified) + C=CC(=O)N1CCN(c2nc(=O)n(-c3c(C)ccnc3C(C)C)c3nc(-c4c(O)cccc4F)c(F)cc23)C(C)C1	Condition met
CC1COCCN1c1cc(-c2ccnn2C)c2ccnc(-c3ccn[nH]3)c2n1 (stereo unspecified) + CC1OCC2(CCN(c3cnc(Sc4ccnc(N)c4Cl)c(N)n3)CC2)C1N	Condition met

Here is another compound to look at.
Task: In plain terms, does CCNC(=O)CC1N=C(c2ccc(Cl)cc2)c2cc(OC)ccc2-n2c(C)nnc21 (stereo unspecified) + C=CC(=O)N1CCN(c2nc(OCC3CCCN3C)nc3c2CCN(c2cccc4cccc(C)c24)C3)CC1CC#N come in under 20% for viability, T/C?
Output: Condition met

###

test system: LG0567-F671-PDC KRAS tumor spheroid viability; test: Anticancer human tumor LG0567-F671-PDC cell line growth inhibition [KRAS2]; details: second compound 0.1 µM; first compound 0.316 µM; hits give low values; spheroids with HUVEC and MSC;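 note: drug exposure lasted seven days after spheroids formed for three days; 100% = DMSO vehicle control viability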
Entries and their viability, T/C values follow.
Write down the numeric answer in % and omit the unit.

compound	viability, T/C (%)
COc1cc(Nc2ncc3c(n2)-c2ccc(Cl)cc2C(c2c(F)cccc2OC)=NC3)ccc1C(=O)O + C=CC(=O)N1CCN(c2nc(=O)n(-c3c(C)ccnc3C(C)C)c3nc(-c4c(O)cccc4F)c(F)cc23)C(C)C1	25.9
CC1COCCN1c1cc(-c2ccnn2C)c2ccnc(-c3ccn[nH]3)c2n1 (stereo unspecified) + COc1cc2nc(C)nc(NC(C)c3cc(N)cc(C(F)(F)F)c3)c2cc1OC1CCOC1	56.2
CC1(C)CCC(CN2CCN(c3ccc(C(=O)NS(=O)(=O)c4ccc(NCC5CCOCC5)c([N+](=O)[O-])c4)c(Oc4cnc5[nH]ccc5c4)c3)CC2)=C(c2ccc(Cl)cc2)C1 + CNCc1ccccc1-c1csc(C(C)Nc2nc(C)nc3cc(OC)c(OC)cc23)c1	70.6
CC(C)NCC(C(=O)N1CCN(c2ncnc3c2C(C)CC3O)CC1)c1ccc(Cl)cc1 (stereo unspecified) + CNCc1ccccc1-c1csc(C(C)Nc2nc(C)nc3cc(OC)c(OC)cc23)c1	53
CC(C)NCC(C(=O)N1CCN(c2ncnc3c2C(C)CC3O)CC1)c1ccc(Cl)cc1 (stereo unspecified) + C=CC(=O)N1CCN(c2nc(OCC3CCCN3C)nc3c2CCN(c2cccc4cccc(C)c24)C3)CC1CC#N	18.6
CCNC(=O)CC1N=C(c2ccc(Cl)cc2)c2cc(OC)ccc2-n2c(C)nnc21 (stereo unspecified) + CC1OCC2(CCN(c3cnc(Sc4ccnc(N)c4Cl)c(N)n3)CC2)C1N	46.2
O=C(c1cc(Cc2n[nH]c(=O)c3ccccc23)ccc1F)N1CCN(C(=O)C2CC2)CC1 + CNCc1ccccc1-c1csc(C(C)Nc2nc(C)nc3cc(OC)c(OC)cc23)c1	80.6
CC(=O)OC12COC1CC(O)C1(C)C(=O)C(O)C3=C(C)C(OC(=O)C(O)C(NC(=O)OC(C)(C)C)c4ccccc4)CC(O)(C(OC(=O)c4ccccc4)C21)C3(C)C (stereo unspecified) + CC1OCC2(CCN(c3cnc(Sc4ccnc(N)c4Cl)c(N)n3)CC2)C1N	40.4

Task: Look up viability, T/C: CCN1CCN(Cc2ccc(Nc3ncc(F)c(-c4cc(F)c5nc(C)n(C(C)C)c5c4)n3)nc2)CC1 + CC1OCC2(CCN(c3cnc(Sc4ccnc(N)c4Cl)c(N)n3)CC2)C1N
Output: 39.9

Task: Quick one: COc1cc(Nc2ncc3c(n2)-c2ccc(Cl)cc2C(c2c(F)cccc2OC)=NC3)ccc1C(=O)O + C=CC(=O)N1CCN(c2nc(OCC3CCCN3C)nc3c2CCN(c2cccc4cccc(C)c24)C3)CC1CC#N
Output: 17.6

Task: Next: Cn1nccc1Nc1nccc(-c2cc3c(s2)C(C)(C)N(CCN2CCOCC2)C3=O)n1 + CC1OCC2(CCN(c3cnc(Sc4ccnc(N)c4Cl)c(N)n3)CC2)C1N
Output: 46.3

Task: Check CC1COCCN1c1cc(-c2ccnn2C)c2ccnc(-c3ccn[nH]3)c2n1 (stereo unspecified) + C=CC(=O)N1CCN(c2nc(OCC3CCCN3C)nc3c2CCN(c2cccc4cccc(C)c24)C3)CC1CC#N too.
Output: 12.7

Task: Same lookup for COC(=O)c1ccc2c(C(=Nc3ccc(N(C)C(=O)CN4CCN(C)CC4)cc3)c3ccccc3)c(O)[nH]c2c1 + COc1cc2nc(C)nc(NC(C)c3cc(N)cc(C(F)(F)F)c3)c2cc1OC1CCOC1 , please.
Output: 65.9

Task: And what about the compound Cn1nccc1Nc1nccc(-c2cc3c(s2)C(C)(C)N(CCN2CCOCC2)C3=O)n1 + C=CC(=O)N1CCN(c2nc(OCC3CCCN3C)nc3c2CCN(c2cccc4cccc(C)c24)C3)CC1CC#N ?
Output: 28

Task: Same lookup for COc1cc(Nc2ncc3c(n2)-c2ccc(Cl)cc2C(c2c(F)cccc2OC)=NC3)ccc1C(=O)O + CNCc1ccccc1-c1csc(C(C)Nc2nc(C)nc3cc(OC)c(OC)cc23)c1 , please.
Output: 58.1

Task: Do the same for COc1cc2nccc(Oc3ccc(NC(=O)C4(C(=O)Nc5ccc(F)cc5)CC4)cc3)c2cc1OC + C=CC(=O)N1CCN(c2nc(=O)n(-c3c(C)ccnc3C(C)C)c3nc(-c4c(O)cccc4F)c(F)cc23)C(C)C1 please
Output: 21.3
